molecular target: T1, Human CD3 on Human CD3+ Jurkat cells (human, UniProt P07766 23-207); assay: cell binding hCD3, fold over background
T1 construct: whole, on cells; CD3 complex on cells; also called hCD3
T1 sequence (P07766 23-207): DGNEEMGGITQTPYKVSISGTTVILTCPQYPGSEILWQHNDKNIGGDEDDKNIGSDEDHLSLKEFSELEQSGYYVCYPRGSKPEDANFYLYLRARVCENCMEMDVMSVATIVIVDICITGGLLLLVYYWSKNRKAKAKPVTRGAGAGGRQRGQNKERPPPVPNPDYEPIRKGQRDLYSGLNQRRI
Each entry below carries its reported Cell Binding hCD3 (FOB).
Dear colleague, please return just the value in FOB, with no unit written.

- Binder: "ADI-46357 (antibody, V domains shown, also called Ab30) VH: QVQLVQSGAEVKKPGASVKVSCKASGFNIKDYYMHWVRQAPGQRLEWIGWIDLENANTVYDAKFQGRVTITRDTSASTAYMELSSLRSEDTAVYYCARDAYGRYFYDVWGQGTLVTVSS VL: DIVMTQSPDSLAVSLGERATINCKSSQSLLNARTGKNYLAWYQQKPGQPPKLLIYWASTRESGVPDRFSGSGSGTDFTLTISSLQAEDVAVYYCAQSYFRRTFGGGTKVEIK"
  Unit Name: "FOB"
  Cell Binding hCD3 (FOB): 24

Now examine the next entry.
Prompt: Look at this binder and give its reported Cell Binding hCD3 (FOB). ADI-45980 (antibody, V domains shown, also called Ab17) VH: QVQLVQSGAEVKKPGASVKVSCKASGFNIKDYYMHWVRQAPGQRLEWIGWIDLENANTVYDAKFQGRVTITRDTSASTAYMELNSLRSEDTAVYYCARDAYGRYFYDVWGQGTLVTVSS VL: DIVMTQSPDSLAVSLGERATINCKSSQSLLNARTGKNYLAWYQQKPGQPPKLLIYWAFTRESGVPDRFSGSGSGTDFTLTISSLQAEDVAVYYCTQSYFRRTFGGGTKVEIK
Completion: 8
